Sourced from patent US11718589B2

molecular target: recombinant 15-PGDH (Homo sapiens (Human), UniProt P15428); test: Enzyme inhibition of recombinant 15-PGDH, in vitro assay; format: biochemical; conditions: recombinant human 15-PGDH; read-out: Enzyme inhibition (IC50)
Sequence (P15428 whole entry): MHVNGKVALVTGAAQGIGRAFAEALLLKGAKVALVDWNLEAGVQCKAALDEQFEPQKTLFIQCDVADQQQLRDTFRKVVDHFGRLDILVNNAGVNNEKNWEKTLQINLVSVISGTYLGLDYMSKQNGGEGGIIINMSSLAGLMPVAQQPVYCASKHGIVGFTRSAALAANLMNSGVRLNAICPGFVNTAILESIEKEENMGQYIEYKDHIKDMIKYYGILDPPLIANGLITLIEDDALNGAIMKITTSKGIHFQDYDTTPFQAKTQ
MEASURED_PARAMETER: IC50

Below are worked cases with known answers.
• COc1ccc(-c2cc(-c3ccnc(F)c3)n3nc(C(=O)N4CCCCC4)cc3n2)cc1 [30a] = 0.02 to 0.1 µM
• O=C(c1cc2nc(-c3nccs3)cc(C(F)(F)F)n2n1)N1CCCCC1 [45a] = 0.014 µM
• O=C(c1ccc2nc(-c3ccccc3)c(-c3cncnc3)nc2c1)N1CCCCC1 [36b] = 0.02 to 0.1 µM

Input: What IC50 appears in the records for this compound with recombinant 15-PGDH (Homo sapiens (Human), UniProt P15428)? COc1ccc(-c2cc(-c3ccncc3)n3nc(C(=O)N4CCCCC4)cc3n2)cc1 [22a]
Output: ~0.1 µM

Input: Another compound to check: O=C(c1ccc2nc(-c3ccccc3)c(-c3ccccc3)nc2c1)N1CCCCC1CO (stereo not drawn) [26b]
Output: 0.1 to 0.5 µM

Input: Param item: COc1ccc(-c2cc(-c3ccncc3Cl)n3nc(C(=O)N4CCCCC4)cc3n2)cc1 [26a]
Output: ~0.5 µM

Input: Another: O=C(c1cc2nc(-c3ccccc3C(F)(F)F)cc(C(F)(F)F)n2n1)N1CCCCC1 [43a]
Output: > 2.5 µM

Input: Do the same for COc1ccc(-c2cc(-c3cncnc3)n3nc(C(=O)N4CCCCC4)cc3n2)cc1 [28a] please
Output: 0.1 to 0.5 µM

Input: Try this compound next: CCCC[S+]([O-])c1nc2nc(-c3nccs3)cc(C(F)(F)F)n2n1 (stereo not drawn) [50a]
Output: > 2.5 µM
